Reported pEC50 values for the following compounds.
target-system: PPAR delta (Homo sapiens)
Sequence (Q03181 211-441 limits assumed): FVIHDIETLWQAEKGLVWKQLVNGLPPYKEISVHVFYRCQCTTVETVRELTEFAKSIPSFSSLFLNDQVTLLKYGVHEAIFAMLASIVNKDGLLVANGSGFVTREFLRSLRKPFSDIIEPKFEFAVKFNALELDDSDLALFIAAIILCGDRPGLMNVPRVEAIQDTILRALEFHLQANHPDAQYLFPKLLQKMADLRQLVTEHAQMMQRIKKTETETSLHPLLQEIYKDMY
procedure-summary: Transfection assay for PPAR receptors (PPAR-Gal4 / Gal4-Luciferase reporter in HEK293 cells)
Assay type: cell-based
experimental-context: value printed in running text after characterisation data; multiple values = multiple measurements; read-out: PPARdleta EC50
pEC50: −log10 of the molar value.

Worked examples follow.
>>> measurement("C=C(COc1ccc(C(F)(F)F)cn1)CSc1ccc(OCC(=O)O)c(C)c1")
"< 5.52"
>>> measurement("C=C(COc1ccc(C(F)(F)F)cc1)CSc1ccc(Cl)cc1OCC(=O)O")
"< 5.52"

What value of pEC50 has been recorded for this entry: C=C(COc1ccc(C(F)(F)F)cc1)C[S+]([O-])c1ccc(OCC(=O)O)c(C)c1 (stereo not drawn)
< 5.52

----------
// reported pEC50 per item
target-system: PPAR delta (Homo sapiens)
procedure-summary: Transfection assay for PPAR receptors (PPAR-Gal4 / Gal4-Luciferase reporter in HEK293 cells)
Format: cell-based
experimental-context: HEK293 cells co-transfected with PPAR-Gal4 receptor and Gal4-Luciferase reporter; 24 hours; multiple values = multiple measurements; read-out: EC50 (PPAR delta)
The quantity pEC50 is defined as the negative base-10 logarithm of the molar concentration.

>>> measurement("CCC(O)(COc1ccc(C(F)(F)F)cc1)CSc1ccc(OCC(=O)O)c(C)c1 (stereo not shown)")
6.91
>>> measurement("C=C(COc1ccc(N(C)C)cc1)CSc1ccc(OCC(=O)O)c(C)c1")
6.62
>>> measurement("C=C(COc1ccccc1)CSc1ccc(OCC(=O)O)c(C)c1")
6.15

Observed pEC50 on PPAR delta (Homo sapiens) for Cc1cc(SCC(F)(F)COc2ccc(C(F)(F)F)cc2)ccc1OCC(=O)O , please.
6.83

----------
target-system: PPAR delta (Homo sapiens)
procedure-summary: Transfection assay for PPAR receptors (PPAR-Gal4 / Gal4-Luciferase reporter in HEK293 cells)
Format: cell-based
experimental-context: HEK293 cells co-transfected with PPAR-Gal4 receptor and Gal4-Luciferase reporter; 24 hours; multiple values = multiple measurements; read-out: EC50 (PPAR delta)
In this section, each of the compounds is paired with its reported EC50.
Quick reminder: number only, in µM, skip the unit.

>>> measurement("C=C(COc1ccc(Cl)cc1Cl)CSc1ccc(OCC(=O)O)c(C)c1")
0.138
>>> measurement("C=C(CCSc1ccc(OCC(=O)O)c(C)c1)Oc1ccc(C(F)(F)F)cc1")
0.194
>>> measurement("Cc1cc(SCC2(COc3ccc(C(F)(F)F)cc3)COC(C)(C)O2)ccc1OCC(=O)O (stereo not drawn)")
0.119

# value lookup — system PPAR delta (Homo sapiens), readout EC50, item C=C(COc1ccc(C(F)(F)F)cc1)COc1ccc(OCC(=O)O)c(C)c1
0.249

# repeat for C=C(COc1ccc(OC)cc1)CSc1ccc(OCC(=O)O)c(C)c1
0.216

Data provenance is patent US8258177B2.
